Listed below: inhibition values for each entry.
molecular target: MAP kinase-activated protein kinase 5 (Homo sapiens); details: at 0.1 µM;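 note: reported values are mean PRAK inhibition figures from the GSK PKIS screen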
Entry rule: numbers only, all in %.

Worked cases, inhibition given:
{"Test smiles": "Cc1nc(-c2ccccc2)n2nc(NCCCN3CCOCC3)ncc12", "inhibition (%)": 0.74}
{"Test smiles": "CC(C)c1ccc2c(c1)NC(=O)/C2=N/Nc1ccc(S(N)(=O)=O)cc1", "inhibition (%)": 0.46}
{"Test smiles": "COc1cc2ncnc(Nc3ccc(C)c(O)c3)c2cc1OC", "inhibition (%)": 3.96}
{"Test smiles": "CN(C)CCCn1c(-c2nonc2N)nc2cnccc21", "inhibition (%)": 0.98}
{"Test smiles": "CN(C)C(=O)O[C@@H]1CN[C@@H](C#Cc2cc3ncnc(Nc4ccc(OCc5cccc(F)c5)c(Cl)c4)c3s2)C1", "inhibition (%)": -0.43}

For reference, reported inhibition for `CCOc1nccc2c1nc(-c1nonc1N)n2CC` stands at 2.15

For reference, reported inhibition for `NC(=O)c1cccc(Nc2nccc(Nc3cccc(F)c3)n2)c1` stands at 0.33

For reference, reported inhibition for `NS(=O)(=O)c1ccc(NC=C2C(=O)Nc3ccc4ncsc4c32)cc1` stands at 2.33

For reference, reported inhibition for `NS(=O)(=O)c1ccc(N/N=C2\C(=O)Nc3ccc(Cl)cc32)cc1` stands at 1.31

For reference, reported inhibition for `Nc1ccc(C#Cc2cncnc2Nc2ccc(OCc3cccc(F)c3)c(Cl)c2)cc1` stands at 1.7

For reference, reported inhibition for `NS(=O)(=O)c1ccc(-c2cc3ccncc3cc2OCc2ccccc2)cc1` stands at 0.82

====

target: Cyclin-dependent kinase 1 (Homo sapiens) (UniProt P06493); conditions: at 0.1 µM;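 note: enzyme assay on the CDK1/cyclin B complex, reported as mean percent inhibition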
Sequence (P06493 whole entry, looked up): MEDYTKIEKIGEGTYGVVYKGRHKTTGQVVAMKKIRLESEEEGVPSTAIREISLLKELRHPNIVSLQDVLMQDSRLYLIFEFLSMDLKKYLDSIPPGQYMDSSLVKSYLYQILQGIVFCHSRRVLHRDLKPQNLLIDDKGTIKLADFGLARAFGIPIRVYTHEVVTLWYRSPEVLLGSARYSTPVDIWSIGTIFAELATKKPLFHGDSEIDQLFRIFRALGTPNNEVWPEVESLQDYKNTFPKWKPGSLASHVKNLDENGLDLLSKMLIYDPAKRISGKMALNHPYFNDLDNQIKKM
Observation type: inhibition (%)
Entry rule: numbers only, all in %.

{"Test smiles": "Cc1cc(-c2ccccn2)cc(C)c1/C=C/c1cncc(-c2nn[nH]n2)c1", "Unit info": "%", "inhibition": 3.71}
{"Test smiles": "CCn1c(-c2nonc2N)nc2c(C#CC(C)(C)O)nc(OCCNC)cc21", "Unit info": "%", "inhibition": 3.65}
{"Test smiles": "COC(=O)c1ccc2c(c1)C(=Cc1cc(Br)c(O)c(Br)c1)C(=O)N2", "Unit info": "%", "inhibition": 1.54}

For reference, reported inhibition for `CN(C)C(=O)O[C@H]1CN[C@H](C#Cc2cc3ncnc(Nc4ccc(OCc5cccc(F)c5)c(Cl)c4)c3s2)C1` stands at 0.08

For reference, reported inhibition for `NC(=O)c1cccc(Nc2nccc(Nc3cccc(F)c3)n2)c1` stands at 1.24

For reference, reported inhibition for `Cc1ccc2c(-c3ccnc(Nc4ccc5c(c4)OCCO5)n3)c(-c3ccc(C(F)(F)F)cc3)nn2n1` stands at 1.21

For reference, reported inhibition for `COc1cc(/C=N/Nc2ncnc3c2cnn3C(C)C)ccc1O` stands at 11.8

For reference, reported inhibition for `COC(=O)c1cncc(/C=C/c2c(C)cc(O)cc2C)c1` stands at 0.78

For reference, reported inhibition for `Cc1ccc(NC(=O)CC2CC2)cc1-c1ccc(C(=O)NCC2CC2)cc1` stands at -0.23

For reference, reported inhibition for `Nc1ccc(C#Cc2cncnc2Nc2ccc(OCc3cccc(F)c3)c(Cl)c2)cc1` stands at 1.11

====

target: Tyrosine-protein kinase SYK (Homo sapiens) (UniProt P43405); conditions: at 1 µM
Description: GSK_PKIS: SYK mean inhibition at 1 uM [Nanosyn]
Observation type: inhibition (%)
Entry rule: numbers only, all in %.

Worked cases, inhibition given:
{"Test smiles": "FC(F)(F)c1ccc(-c2nn3ncccc3c2-c2ccnc(Nc3ccc4c(c3)OCCO4)n2)cc1", "Unit info": "%", "inhibition": 0.25}
{"Test smiles": "Cc1ccc(Nc2ccnc(Nc3cccc(C(N)=O)c3)n2)cc1O", "Unit info": "%", "inhibition": 14.2}
{"Test smiles": "CN(C)c1cc2c(Nc3ccc4c(cnn4Cc4ccccc4)c3)ncnc2cn1", "Unit info": "%", "inhibition": 0.09}
{"Test smiles": "OCc1ccc(-c2nc(-c3ccccn3)c(-c3ccc4c(c3)OCO4)[nH]2)cc1", "Unit info": "%", "inhibition": -0.31}

As a next step, examine the compound that follows.
For reference, reported inhibition for `Nc1nccc(C#Cc2cncnc2Nc2ccc(OCc3cccc(F)c3)c(Cl)c2)n1` stands at -0.63
